protocolDescription: LLNA sensitization test
Format: in vivo
particulars: cytotoxicity can also be detected
measurementLabel: LLNA sensit.

[
  {
    "compound": "Cc1ccc([I+]c2ccc(C)cc2)cc1 [Example 2]",
    "valueReported": "positive"
  },
  {
    "compound": "Cc1ccc([I+]c2ccc(C)cc2)cc1 [Example 1, ditolyliodonium chloride]",
    "valueReported": "cytotoxic"
  },
  {
    "compound": "COc1ccc([I+]c2ccc(OC)cc2)cc1",
    "valueReported": "cytotoxic"
  },
  {
    "compound": "CC(C)c1ccc([I+]c2ccc(C(C)C)cc2)cc1",
    "valueReported": "positive"
  },
  {
    "compound": "CCOc1ccc([I+]c2ccc(C)cc2)cc1",
    "valueReported": "positive"
  },
  {
    "compound": "Cc1ccc([I+]c2ccc(C(C)C)cc2)cc1 [Example 3, cumyltolyliodonium chloride]",
    "valueReported": "negative"
  }
]

Proceeding to the next compound to report its LLNA sensit..
Q) // LLNA sensit. lookup, key: Cc1ccc([I+]c2ccc(Oc3ccccc3)cc2)cc1
A) negative

Source of measurements: patent US6291540A
